test_summary: NOD1 signaling inhibitors, primary screen, cell-based, luminescence, uHTS (AID 1578);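 further: HEK-293T reporter cells stimulated with the NOD1 agonist gamma-tri-DAP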
experimental_setup: NOD1-driven NF-kB luciferase reporter cells, at 4 µM, stronger effect = higher value
The whole screen tested about 290,000 compounds, of which about 3,000 (1%) were called active. Shown is part of a subset that was picked to be rich in actives.

- compound: "Cc1cc(=O)oc2c(C)c(OCC(=O)N3CCC(C(=O)O)CC3)ccc12"
  inhibition (%): -25.2
- compound: "CCCCCc1cc(=O)oc2c(C(CCN3CCCCC3)c3ccc4c(c3)OCO4)c(OC)cc(OC)c12 (configuration not stated)"
  inhibition (%): 2.9
- compound: "COC(=O)c1ccc(CSc2cc(C)c3cccc(C)c3n2)o1"
  inhibition (%): -10.2
- compound: "O=C(O)CN1C(=O)CSc2ccccc21"
  inhibition (%): 14.5
- compound: "COc1ccc(CN(C)C(=O)c2ccc(COc3ccccc3)cc2)c(OC)c1"
  inhibition (%): -11.1
- compound: "CC(C)c1cccc(C(C)C)c1NC(=O)c1ccccc1"
  inhibition (%): -17.6
- compound: "NNC(=O)c1cc(Cl)ccc1Cl"
  inhibition (%): -38.8
- compound: "CC(C)c1cccc(C(C)C)c1NC(=O)CN1CCCC1"
  inhibition (%): -21.2
- compound: "CNc1cc(C)nc(N2CCOCC2)n1"
  inhibition (%): -5.2
- compound: "COC(=O)c1ccc(CSc2cc(C)c3cc(C)cc(C)c3n2)o1"
  inhibition (%): 48.3
- compound: "c1coc(CNc2nc(-c3ccncc3)cs2)c1"
  inhibition (%): -35.7
- compound: "Brc1ccc(CSc2ncn[nH]2)cc1"
  inhibition (%): 19

====

test_summary: NOD1 signaling inhibitors, primary screen, cell-based, luminescence, uHTS (AID 1578);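 further: HEK-293T reporter cells stimulated with the NOD1 agonist gamma-tri-DAP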
experimental_setup: NOD1-driven NF-kB luciferase reporter cells, at 4 µM
About 3,000 (1%) of roughly 290,000 compounds were called active. No stated cut-off is given here; in the data, active means inhibition mostly above about 36% (no sharp cut-off); inactive means mostly below about 34%. Shown is part of a subset that was picked to be rich in actives.
Outcome codes: active, inactive

- compound: "Cc1cc(/C=N/N2CCN(C)CC2)c(C)n1-c1ccc(Cl)cc1"
  category: "inactive"
- compound: "CCCCNC1=CC(=O)C(=O)c2ccccc21"
  category: "inactive"
- compound: "CSCCC(NC(=O)c1cccc(C)c1)C(=O)Nc1sccc1C(N)=O (centres undefined)"
  category: "active"
- compound: "Cc1cccc(NC(NC(=O)c2ccccc2[N+](=O)[O-])C(Cl)(Cl)Cl)c1 (centres undefined)"
  category: "inactive"
- compound: "CC/C(=N\\NC(=S)Nc1cccc(C)c1)c1ccccc1"
  category: "active"
- compound: "COc1ccc(C(=O)NCCN2CCOCC2)c(OC)c1OC"
  category: "inactive"
- compound: "Cn1c(CO)cnc1SCc1ccc(Cl)cc1"
  category: "inactive"
- compound: "N#CCC(=O)Nc1ccc(C(=O)OCC(=O)NCCCc2ccccc2)cc1"
  category: "inactive"
- compound: "O=C1C=C(Nc2ccccc2)c2ccccc2C1=O"
  category: "inactive"
- compound: "Cn1c(=O)c2c(nc(SCC(=O)NCC3CCCO3)n2Cc2ccc(F)cc2)n(C)c1=O (centres undefined)"
  category: "inactive"
- compound: "COc1ccc(N(Cc2ccccc2)C(=O)CSc2nnc(Cn3nnc4ccccc43)o2)cc1"
  category: "inactive"
- compound: "CSCCC(NC(=O)c1ccccc1)C(=O)Nc1ccc(C)cc1 (centres undefined)"
  category: "inactive"
- compound: "O=S(=O)(O)c1ccc(N=NNc2ccc(Br)cc2)cc1"
  category: "inactive"
- compound: "Cc1cccc(NC(=S)NCCC(c2ccccc2)c2ccccc2)c1"
  category: "inactive"
- compound: "O=C1C=C(NCc2ccccc2)c2ccccc2C1=O"
  category: "active"
- compound: "Cc1ccc(NC(=O)CN(C)C(=O)Cc2c(Cl)cccc2Cl)cc1"
  category: "inactive"
- compound: "Cc1cccc(C)c1Nc1nnc(SCc2nc3ccccc3s2)s1"
  category: "inactive"
- compound: "CSCCC(NC(=O)c1cccc(C)c1)C(=O)O (centres undefined)"
  category: "inactive"
- compound: "Cc1ccc2nc(NC(=O)c3ccc(OCC4CCCO4)cc3)sc2c1 (centres undefined)"
  category: "inactive"
- compound: "Cc1ccc(C)c(OCC(=O)Nc2ccc(S(=O)(=O)Nc3ncccn3)cc2)c1"
  category: "inactive"
- compound: "O=C(CSc1nnc(Cn2nnc3ccccc32)o1)N(Cc1ccc(Cl)cc1)c1ccccc1"
  category: "active"
- compound: "Cc1cccc(NC(=S)N/N=C(\\c2ccccc2)C(C)C)c1"
  category: "inactive"
- compound: "O=C(CN1CCCCCC1)NCc1ccccc1"
  category: "inactive"
- compound: "Cc1cc(=O)[nH]c(SCC(=O)Nc2ccc(F)c([N+](=O)[O-])c2)n1"
  category: "inactive"

====

test_summary: NOD1 signaling inhibitors, primary screen, cell-based, luminescence, uHTS (AID 1578);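 further: HEK-293T reporter cells stimulated with the NOD1 agonist gamma-tri-DAP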
experimental_setup: NOD1-driven NF-kB luciferase reporter cells, at 4 µM, stronger effect = higher value
Hit rate of the full screen: of about 290,000 compounds, about 3,000 (1%) were called active. For the sample, actives were picked, then their nearest neighbours and some compounds at random.
Mark Met for reported inhibition of 10% or greater; mark Not met for anything smaller.

- compound: "CC(SCC(=O)O)c1nc2ccccc2[nH]1 (configuration not stated)"
  category: "Met"
- compound: "CC1CCCC(NC(=O)Cc2ccc(Br)cc2)C1C (configuration not stated)"
  category: "Not met"
- compound: "c1ccc(Cc2nnc3sc(C4COc5ccccc5O4)nn23)cc1 (configuration not stated)"
  category: "Met"
- compound: "CCn1c(-c2ccccc2)c(C(=O)CCl)c2ccccc21"
  category: "Met"
- compound: "c1ccc2c(c1)OCC(c1nn3c(Cn4nnc5ccccc54)nnc3s1)O2 (configuration not stated)"
  category: "Not met"
- compound: "CCC1C/C(=C\\c2cccnc2)C(=O)/C(=C/c2cccnc2)C1 (configuration not stated)"
  category: "Met"
- compound: "CN1C/C(=C/c2cccnc2)C(=O)/C(=C/c2cccnc2)C1"
  category: "Met"
- compound: "O=C1/C(=C/c2cccnc2)CC/C1=C\\c1cccnc1"
  category: "Not met"
- compound: "COc1ccccc1NC(=O)/C=C/c1ccc(OC)c(S(=O)(=O)N2CCOCC2)c1"
  category: "Not met"
- compound: "CCn1c(-c2ccccc2)c(C(=O)O)c2ccccc21"
  category: "Not met"
- compound: "COc1ccc(C(=O)NC2CCCc3c2cnn3-c2cccc(C)c2C)o1 (configuration not stated)"
  category: "Not met"
- compound: "c1ccc(OCc2nnc3sc(C4COc5ccccc5O4)nn23)cc1 (configuration not stated)"
  category: "Not met"

====

test_summary: NOD1 signaling inhibitors, primary screen, cell-based, luminescence, uHTS (AID 1578);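 further: HEK-293T reporter cells stimulated with the NOD1 agonist gamma-tri-DAP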
experimental_setup: NOD1-driven NF-kB luciferase reporter cells, at 4 µM
About 3,000 (1%) of roughly 290,000 compounds were called active. No stated cut-off is given here; in the data, active means inhibition mostly above about 36% (no sharp cut-off); inactive means mostly below about 34%. The list comes from a sample in which actives are over-represented; it also holds close analogues and randomly drawn compounds.
Labels: active, inactive

- compound: "COc1cccc(-c2cc(C(F)(F)F)nc(-n3cccn3)n2)c1"
  category: "inactive"
- compound: "Cc1ccccc1C1c2[nH]c3ccccc3c2CCN1CCCn1cccn1 (stereo unspecified)"
  category: "active"
- compound: "CC(Cc1ccccc1)C(=O)NCc1ccncc1 (stereo unspecified)"
  category: "inactive"
- compound: "O=C1Cc2ccccc2C(=O)N1c1ccc(F)cc1Cl"
  category: "inactive"
- compound: "Cc1[nH]c(-c2ccc(F)cc2)cc1C(=O)N1CCN(c2ccccc2)CC1"
  category: "inactive"
- compound: "CCOc1ccc(NS(=O)(=O)c2ccc(C(=O)N(CC)CC(=O)NCc3cccs3)cc2)cc1"
  category: "inactive"
- compound: "CC(C)(C)c1cnnn1-c1ccc(C(=O)CCl)cc1"
  category: "active"
- compound: "CCOC(=O)C1=C(C)n2c(s/c(=C/c3cccc([N+](=O)[O-])c3)c2=O)=NC1c1ccc(O)c(OC)c1 (stereo unspecified)"
  category: "active"
- compound: "COc1cccc(NC(=O)Cc2ccc3ccccc3c2)c1"
  category: "inactive"
- compound: "COc1cccc(-c2cc(C(F)(F)F)nc(-n3cncn3)n2)c1"
  category: "active"
- compound: "COc1ccc(C2c3[nH]c4ccccc4c3CCN2CCCn2cccn2)c(C)c1C (stereo unspecified)"
  category: "inactive"
- compound: "Cc1ccccc1N1CCN(C(=O)c2ccccc2NC(=O)C2CC=CCC2C(=O)O)CC1 (stereo unspecified)"
  category: "inactive"
- compound: "O=C(CCc1nc(-c2ccc(Cl)cc2)no1)NC1CCCCC1"
  category: "inactive"
- compound: "CCOc1cc2nc(-c3ccc(OC)c(OC)c3)nc(N3CCOCC3)c2cc1OC"
  category: "inactive"
- compound: "O=S(=O)(NCc1ccc(F)cc1)c1ccc(-n2cnnn2)cc1"
  category: "inactive"
- compound: "COc1cc(OC)cc(-c2nnc(Nc3nc4c(F)cccc4s3)o2)c1"
  category: "inactive"
- compound: "CC(C)c1[nH]c(=O)c(C#N)c2c1COC(C)(C)C2"
  category: "inactive"
- compound: "Fc1cccc2sc(Nc3nnc(-c4ccccc4)o3)nc12"
  category: "inactive"
- compound: "CCOC(=O)C1=C(C)N=c2s/c(=C\\c3ccc(O)c([N+](=O)[O-])c3)c(=O)n2C1c1ccccc1OC (stereo unspecified)"
  category: "inactive"
- compound: "Fc1ccccc1C1c2[nH]c3ccccc3c2CCN1CCCn1cccn1 (stereo unspecified)"
  category: "inactive"
- compound: "COc1ccc(C=O)cc1Cn1ccnc1C"
  category: "active"
- compound: "Clc1ccc(CN2CCc3c([nH]c4ccccc34)C2)cc1Cl"
  category: "inactive"
- compound: "CCOC(=O)C1=C(C)N=c2s/c(=C/c3ccccc3)c(=O)n2C1c1ccc(OC)c(OC)c1 (stereo unspecified)"
  category: "inactive"
- compound: "CCC(NC(=O)c1cc(COc2ccc(OC)cc2Cl)on1)c1ccncc1 (stereo unspecified)"
  category: "inactive"
- compound: "COc1ccc(C(=O)Oc2cccc(Nc3ncnc4ccccc34)c2)cc1OC"
  category: "inactive"
- compound: "C=CCSc1nnc(N2C(=O)C(O)=C(C(=O)c3ccco3)C2c2ccccc2F)s1 (stereo unspecified)"
  category: "inactive"
- compound: "O=C(O)CSCC(=O)N1CCc2c([nH]c3ccccc23)C1C(F)(F)F (stereo unspecified)"
  category: "inactive"
- compound: "O=C(N/N=C/c1cc(Br)cc([N+](=O)[O-])c1O)c1ccc(NC(=O)c2ccc(F)cc2)cc1"
  category: "inactive"
- compound: "Cc1cccc(CN2CCc3c([nH]c4ccccc34)C2)c1"
  category: "inactive"
- compound: "CCOC(=O)CON1C(=O)C(=O)N(OCC(=O)OCC)C2CCCCC21 (stereo unspecified)"
  category: "inactive"
- compound: "CC(C)(C)c1nc(CN2CCCCC2)cc(CN2CCCCC2)c1O"
  category: "inactive"
- compound: "COc1cccc2sc(Nc3nnc(-c4ccc(F)cc4)o3)nc12"
  category: "inactive"
- compound: "O=c1ccc(-c2ccccc2)n[nH]1"
  category: "inactive"
- compound: "Cc1ccc(-n2cc(C(=O)c3ccc(N4CCN(C)CC4)cc3)nn2)cc1Cl"
  category: "inactive"
- compound: "CC(=O)c1ccc(-n2nncc2C(C)(C)C)cc1"
  category: "inactive"
- compound: "CCC(CC)C(=O)N1c2ccc(F)cc2CCC1C (stereo unspecified)"
  category: "inactive"
- compound: "COc1ccc(C=O)cc1Cn1ccnc1"
  category: "inactive"
- compound: "O=C(CCC(=O)N1CCSc2ccccc21)NCc1cccc(Br)c1"
  category: "inactive"
- compound: "COc1cccc(OC)c1-c1nn(-c2ncc(C(F)(F)F)cc2Cl)c(=O)o1"
  category: "inactive"
- compound: "COc1ccc(-c2cc(C(F)(F)F)nc(-n3cncn3)n2)cc1"
  category: "inactive"
- compound: "Cc1ccc(S(=O)(=O)NC(C)(C)CSc2nnc(N)s2)cc1"
  category: "inactive"
- compound: "Cc1ccccc1C(CC(=O)c1cccs1)C(C#N)C#N (stereo unspecified)"
  category: "active"
- compound: "CC(CC(=O)c1cccs1)CC(=O)c1cccs1"
  category: "inactive"
- compound: "CCc1nccn1Cc1cc(C=O)ccc1OC"
  category: "inactive"
- compound: "O=c1ccc(Cc2ccc(Cl)cc2)n[nH]1"
  category: "inactive"
- compound: "CC1CCc2cc(F)ccc2N1C(=O)CCC(=O)O (stereo unspecified)"
  category: "inactive"
